measurement.type: melting point

Use these answered entries as a reference point.
In [3]: df
Out[3]:
                              smiles_string    measurement
0  CCSc1cc(C)nc(SCC)c1NC(=O)CN1CCN(CCSc2nc3cccc([N+](=O)[O-])c3o2)CC1    50 to 52 °C
1                       C=CCNc1cc(Cl)nnc1Cl    95 to 98 °C
2        [N-]=[N+]=C1c2ccccc2-c2ccc(Cl)cc21  102 to 108 °C
3  CCCc1[nH]c2cc(C(=O)OC)ccc2c1C(=O)C1CCCCC1  136 to 137 °C

melting point in this record for COc1cn(-c2ccc(C(F)(F)F)cc2F)nc(-c2ccnn2-c2ccccc2)c1=O : 169 to 171 °C

melting point in this record for C=CCNCCC(OC)(c1ccccc1)c1ccccc1 : 40 to 50 °C
